meta.source: patent US20250019357A1

I'd appreciate it if you could supply pKi values for the items below.
Target system: UniProt:P31645
Protocol description: Human serotonin transporter  assay ([3H]imipramine radioligand, CHO cells)
Assay type: binding
Measurement parameters: Cheng Prusoff equation; read-out: SERT Ki
Description: EXAMPLE 8: Human Serotonin Transporter (SERT, SLC6A4) Functional Antagonist Uptake Assay Benzofuran derivatives were evaluated for inhibiting the human 5-HT transporter (hSERT) as expressed in CHO cells using an antagonist radioligand assay (Tatsumi, M. et al. (1999), Eur. J. Pharmacol., 368: 277-283). […] Test compounds were assayed in three trials at […], and 0.94868 μM. EXAMPLE 57: Human Serotonin Transporter (SERT, SLC6A4) Functional Antagonist Uptake Assay
Numbers only, as −log10 of the molar value.

[[record]]
compound = "CN[C@H](C)Cc1ccc2occc2c1"
readout_name = "pKi"
meas_value = 5.92

[[record]]
compound = "CN[C@@H](C)Cc1ccc2ccoc2c1"
readout_name = "pKi"
meas_value = 5.51

[[record]]
compound = "CN[C@@H](C)Cc1ccc2occc2c1"
readout_name = "pKi"
meas_value = 5.82


Read the next record carefully.
Query :: Name the recorded pKi for CN[C@H](C)Cc1ccc2ccoc2c1 (stereo in doubt) .
Result :: 4.96

----------
Target system: 5-HT1BR (Homo sapiens (Human), UniProt P28222)
Measurement parameters: Table 3
Please provide measured pEC50 for the entries that follow.
Numbers only, as −log10 of the molar value.

Provide each entry's pEC50 from the list below.
1. CN[C@@H](C)Cc1ccc2ccoc2c1
2. CN[C@H](C)Cc1ccc2occc2c1
3. CN[C@@H](C)Cc1ccc2occc2c1
4. CN[C@H](C)Cc1ccc2ccoc2c1 (stereo in doubt)

Result ::
[6.99, 6.01, 6.79, 5.83]

----------
Target system: 5-HT1BR (Homo sapiens (Human), UniProt P28222)
Type: cell-based
Measurement parameters: 5-HT1BR agonist curve
Counter-ions that a name gives are not always drawn.
Kindly supply the reported Hill Coef. values for the records listed here.
Give bare numbers.

Okay, here is my list. What is Hill Coef. for each of these?
1. CNC(C)C(=O)c1ccc2occc2c1 (racemic) [rac-BK-5-MAPB, hydrochloride]
2. CNC(C)C(=O)c1ccc2occc2c1 (single isomer, unassigned; (+)) [(+)-Bk-5-MAPB]
3. CN[C@@H](C)Cc1ccc2occc2c1 [Pattern S-5-MAPB, S-5-MAPB]

Result ::
[0.91, 1.05, 1.08]

Query :: Reported Hill Coef., molecule CN[C@H](C)Cc1ccc2ccoc2c1 (stereo in doubt) [Pattern R-6-MAPB] : ____
Result :: 1.14
